Taken from paper PMC6831611.

assay: Apparent permeability (Papp A to B) across the in vitro iPSC-hBBB model; settings: human
MEASURED_ATTRIBUTE: Papp A→B at 1 h (×10⁻⁶ cm/s)
Give the value, in units of ×10⁻⁶ cm/s, as a plain number.

Problem: Output measured Papp A→B at 1 h for this item: CC(C)NCC(O)COc1cccc2ccccc12 (stereo not shown)
Result: 21.7

----------
tested on: ABC transporters (P-gp); test: in vitro; conditions: human, PappBA/PappAB efflux ratio (ER)
MEASURED_ATTRIBUTE: efflux ratio at 60 min
Note: the reply should be a number with no unit written.

Problem: Jot down efflux ratio at 60 min (ABC transporters (P-gp)) of CC[C@]1(O)C[C@@H]2CN(CCc3c([nH]c4ccccc34)[C@@](C(=O)OC)(c3cc4c(cc3OC)N(C)[C@H]3[C@@](O)(C(=O)OC)[C@H](OC(C)=O)[C@]5(CC)C=CCN6CC[C@]43[C@@H]65)C2)C1 [vinblastine] .
Result: 1.55

----------
system: ABC transporters; test: in vitro; conditions: rat
MEASURED_ATTRIBUTE: efflux ratio

Problem: Jot down efflux ratio (ABC transporters) of `CC[C@]1(O)C[C@@H]2CN(CCc3c([nH]c4ccccc34)[C@@](C(=O)OC)(c3cc4c(cc3OC)N(C)[C@H]3[C@@](O)(C(=O)OC)[C@H](OC(C)=O)[C@]5(CC)C=CCN6CC[C@]43[C@@H]65)C2)C1` .
Result: ≥ 1.25
